Source of measurements: the RNAGym collection of RNA variant scans (doi:10.1073/pnas.2313332121)

B1: TPR t1 (parent)
chain: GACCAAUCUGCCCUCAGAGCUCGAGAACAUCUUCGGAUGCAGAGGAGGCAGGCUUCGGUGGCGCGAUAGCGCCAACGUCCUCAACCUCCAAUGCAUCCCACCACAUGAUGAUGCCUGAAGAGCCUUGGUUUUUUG

- Variants of: B1
- PROCEDURE SUMMARY: polymerase ribozyme fitness, log enrichment relative to wild type (log ratio); higher = more active; in vitro selection for triplet polymerase activity
ENDPOINT: polymerase ribozyme fitness (log ratio)
Note: the reply should be a number with no unit written.

[[record]]
mutant = "G69U A91C C114A C124U U126C"
endpoint = "polymerase ribozyme fitness (log ratio)"
recorded_result = -2.19


Write down polymerase ribozyme fitness (log ratio) measured for item C4A A46U -2.61

Quick one: give measured polymerase ribozyme fitness (log ratio) for U21A U87A 0.177

// Input: C13U U55G C79U . Output its polymerase ribozyme fitness (log ratio) only. 0.324

Specify polymerase ribozyme fitness (log ratio) for A27G G48U and stop. -2.47

Hello, please tell me recorded polymerase ribozyme fitness (log ratio) for this one: C12A G117C A121G -3.52
